These data points were gathered from ChEMBL document CHEMBL4342483.

assay-details: Half life in phosphate buffer at pH 6.4 and d6-DMSO (1:1) by kinetic time-course NMR method
Assay type: physicochemical
conditions-used: phosphate buffer and d6-DMSO (1:1)
value-kind: half-life (h)
Numbers only here, please. The scale is h.

Incoming: Consider the compound shown here: CC(OC(=O)C[C@H](N)C(=O)n1ncc2cc(Br)ccc21)OC(=O)N1CCC(c2ccccc2)CC1 (stereo partly specified) What is its recorded half-life?
Outgoing: 4.64

====

assay-details: Half life in phosphate buffer and DMSO supplemented with 4% bovine serum albumin at pH 7.4 by HPLC analysis
Format: physicochemical
conditions-used: phosphate buffer and DMSO with 4% bovine serum albumin
# Lookup of reported half-life keyed by entry
Numbers only here, please. The scale is h.

Worked cases, answers included:
Cc1cc(Nc2ncc(Cl)c(Nc3ccccc3S(=O)(=O)C(C)C)n2)c(OC(C)C)cc1C1CCN(C(=O)OC(C)OC(=O)CC(N)CC(=O)n2ncc3c(-c4nc(N5CCOCC5)c5sc(CN6CCN(S(C)(=O)=O)CC6)cc5n4)cccc32)CC1 (stereo not drawn) ... 7.6
Cc1cc(Nc2ncc(Cl)c(Nc3ccccc3S(=O)(=O)C(C)C)n2)c(OC(C)C)cc1C1CCN(C(=O)OC(C)OC(=O)C[C@H](N)C(=O)n2ncc3c(-c4nc(N5CCOCC5)c5sc(CN6CCN(S(C)(=O)=O)CC6)cc5n4)cccc32)CC1 (stereo partly drawn) ... 7.4

// switching to the query compound
Incoming: Consider the compound shown here: Cc1cc(Nc2ncc(Cl)c(Nc3ccccc3S(=O)(=O)C(C)C)n2)c(OC(C)C)cc1C1CCN(C(=O)OC(C)OC(=O)[C@@H](N)CC(=O)n2ncc3c(-c4nc(N5CCOCC5)c5sc(CN6CCN(S(C)(=O)=O)CC6)cc5n4)cccc32)CC1 (stereo partly drawn) What is its recorded half-life?
Outgoing: 19.3
